System: NCI-H322M lung
Experiment: NCI-60 one-dose screen, 48 h (100 = growth as untreated, 0 = no growth, -100 = all killed)
Conditions: 10 µM unless noted
About 83,000 compounds went through this panel and 20% of them were active in at least one assay; those are over-represented in the sample as a whole.
measure name: growth (%)
State just the number; it will be interpreted in %.

Ask | What value of growth has been reported for the following molecule? COc1ccc(/C=N/NC2=NC3C(S2)N(C)C(=O)N3C)cc1 (centres undefined)
Reply | 47.5

Ask | What value of growth has been reported for the following molecule? COc1cc2c(cc1OC)C(Sc1ccc(C)cc1)c1c(nc(N)c(C#N)c1N)O2 (centres undefined)
Reply | -93.9

Ask | What value of growth has been reported for the following molecule? CCNC(=O)N1CCc2cc(OC)c(OCCc3ccc(OC)c(N)c3)cc2C1c1ccc(C)cc1C (centres undefined)
Reply | 40.7

Ask | What value of growth has been reported for the following molecule? O=C1[C@H]2Cc3c([nH]c4ccccc34)[C@@H](c3ccc(Cl)cc3)N2C(=O)CN1C1CCN(Cc2ccccc2)CC1
Reply | 57.1

Ask | What value of growth has been reported for the following molecule? COc1cc(-c2nn(C(C)(C)C)cc2-c2ccnc(NCCCNS(=O)(=O)c3ccc(C)cc3)n2)ccc1Cl
Reply | 86

Ask | What value of growth has been reported for the following molecule? COc1ccc(/C=C/C(=O)c2cc(S(N)(=O)=O)c(OC)cc2OC)cc1
Reply | 77.2

Ask | What value of growth has been reported for the following molecule? O=C(c1ccc(O)cc1)[C@@H]1CN[C@@]2(C(=O)Nc3ccccc32)[C@H]1c1ccc(F)cc1
Reply | 99.7

Ask | What value of growth has been reported for the following molecule? C=C(C=O)[C@@H]1CC[C@]2(COC(C)=O)CC[C@]3(C)C(CC[C@@H]4[C@@]5(C)CC[C@H](OC(C)=O)C(C)(C)[C@@H]5CC[C@]43C)[C@@H]12 (some centres undefined)
Reply | 40.5

Ask | What value of growth has been reported for the following molecule? NC(N)=Nc1ccc(Oc2cccc(Nc3cccc(C(F)(F)F)c3)c2)cn1
Reply | 14.7

Ask | What value of growth has been reported for the following molecule? CCc1cccc(NC(=O)CNc2cc(S(=O)(=O)N(C)C)cc(C)c2C)c1
Reply | 105

Ask | What value of growth has been reported for the following molecule? CNC(=O)c1cc(N2CCc3cc(NC(=O)Nc4ccc(Cl)c(C(F)(F)F)c4)ccc32)ccn1
Reply | 87.1

Ask | What value of growth has been reported for the following molecule? C#CCOC(=O)[C@@H]1CCCN1CC#C
Reply | 106

Ask | What value of growth has been reported for the following molecule? N/C(=N\C(N)=N\c1nc2ccccc2s1)c1ccc2ccccc2c1
Reply | 96.8

Ask | What value of growth has been reported for the following molecule? COc1cc(-c2nc(-c3ccccc3)[nH]c2-c2ccnc(NCCCNS(=O)(=O)c3cccc(F)c3)n2)ccc1Cl
Reply | 87.1

Ask | What value of growth has been reported for the following molecule? CCO/C=N/C1=C(C#N)C(c2ccc(Cl)cc2)c2sc3c(CC)cccc3c2O1 (centres undefined)
Reply | 43.3

Ask | What value of growth has been reported for the following molecule? COc1cc(-c2nc(SC(C)C)n(C(C)C)c(=O)c2C#N)ccc1OCc1ccccc1
Reply | 64.9

Ask | What value of growth has been reported for the following molecule? COc1ccc(N2CCN(C3=C(Cl)C(=O)C(C)=C(C)C3=O)CC2)cc1
Reply | 106

Ask | What value of growth has been reported for the following molecule? CCN1CCN(Cc2cn(-c3ccc(S(N)(=O)=O)cc3)nn2)CC1
Reply | 106

Ask | What value of growth has been reported for the following molecule? COc1cccc2cc(-c3cc4ccccc4[nH]3)/c(=N\NC(=O)c3ccc(Cl)cc3)oc12
Reply | 41.5
